These entries and their values trace back to ChEMBL document CHEMBL1201861.

tested on: HL-60; assay: cells; type: functional, cell-based, Homo sapiens; conditions: Homo sapiens, HL-60;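 also: growth inhibition of human HL-60 cells, read out with a cell viability assay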
Description: SANGER: Inhibition of human HL-60 cell growth in a cell viability assay.
quantity_measured: IC50

Challenge: Please list IC50 recorded for the compound O=C1NC(=O)c2c1c(-c1ccccc1Cl)cc1[nH]c3ccc(O)cc3c21
Response given: > 2000 nM

Challenge: Fill in IC50 for record NC(=O)c1cccc(-c2cc(Nc3ccc(OC(F)(F)F)cc3)ncn2)c1
Response given: > 1280 nM

Challenge: Provide measured IC50 value, entry: CC1=C(/C=C/C(C)=C/C=C/C(C)=C/C(=O)O)C(C)(C)CCC1 [TRETINOIN]
Response given: 285 nM

Challenge: Look up IC50 of C/C(=C\c1csc(C)n1)[C@@H]1C[C@@H]2O[C@]2(C)CCC[C@H](C)[C@H](O)[C@@H](C)C(=O)C(C)(C)[C@@H](O)CC(=O)O1 [PATUPILONE] and report it.
Response given: 5 nM

Challenge: Find the measured IC50 of Cc1ccc(NC(=O)c2ccc(CN3CCN(C)CC3)cc2)cc1Nc1nccc(-c2cccnc2)n1 [IMATINIB] and report it.
Response given: > 2000 nM

Challenge: # return recorded IC50 for entry COC(=O)[C@H](CCSC)NC(=O)c1ccc(NC[C@@H](N)CS)cc1-c1ccccc1
Response given: > 1020 nM

Challenge: Kindly indicate its recorded IC50. Item: OC[C@H](Cc1ccccc1)Nc1nc(Oc2ccc3c(c2)CCC3)nc2c1ncn2Cc1ccc(-c2ccccc2)cc1
Response given: > 10200 nM

Challenge: Please give measured IC50 of the following entry: NC(=O)Nc1cc(-c2cccc(F)c2)sc1C(=O)N[C@H]1CCCNC1 [AZD-7762]
Response given: 774 nM

----------
# pIC50 annotations
tested on: TGW; experiment: cells; type: functional, cell-based, Homo sapiens; conditions: Homo sapiens, TGW
Description: SANGER: Inhibition of human TGW cell growth in a cell viability assay.
pIC50: −log10 of the molar value.

Worked set:
>>> experimental_value("CN(C)CCOc1ccc(-c2nc(-c3ccncc3)c(-c3ccc4c(c3)CC/C4=N\\O)[nH]2)cc1 [SB590885]")
"< 5.30"
>>> experimental_value("COC(=O)[C@H](CCSC)NC(=O)c1ccc(NC[C@@H](N)CS)cc1-c1ccccc1")
"< 5.99"
>>> experimental_value("Nc1ccccc1NC(=O)c1ccc(CNC(=O)OCc2cccnc2)cc1 [ENTINOSTAT]")
5.97
>>> experimental_value("Cc1ccc(C(=O)Nc2ccc(CN3CCN(C)CC3)c(C(F)(F)F)c2)cc1C#Cc1cnc2cccnn12 [PONATINIB]")
"< 6.29"
>>> experimental_value("C/C(=C\\c1csc(C)n1)[C@@H]1C[C@@H]2O[C@]2(C)CCC[C@H](C)[C@H](O)[C@@H](C)C(=O)C(C)(C)[C@@H](O)CC(=O)O1 [PATUPILONE]")
7.87
>>> experimental_value("Cc1ccc(-n2nc(C(C)(C)C)cc2NC(=O)Nc2ccc(OCCN3CCOCC3)c3ccccc23)cc1 [DORAMAPIMOD]")
"< 5.00"
>>> experimental_value("Cc1ccc(NC(=O)c2ccc(CN3CCN(C)CC3)cc2)cc1Nc1nccc(-c2cccnc2)n1 [IMATINIB]")
"< 5.70"

Attention now shifts to the item below.
Challenge: // Input: NC(=O)c1cccc(-c2cc(Nc3ccc(OC(F)(F)F)cc3)ncn2)c1 . Output its pIC50 only.
Response given: < 5.89
